System: 885724-159-R-J1-PDC complex spheroid viability
Test: Anticancer human tumor 885724-159-R-J1-PDC patient-derived pancreatic adenocarcinoma cell line growth inhibition [GQUAD]
Details: second compound 0.316 µM; first compound 10 µM; hits give low values
From the text: DNA G-quadruplex Stabilizer Agents in Combinations in Complex Spheroids A high-throughput screen of multi-cell type tumor spheroids was designed to identify active combinations of DNA G-quadruplex stabilizer agents and targeted small molecules. […] Compounds. […] If the clinical Cmax for an agent had not been determined, the highest concentration tested was 10 microM. […]
For each entry below, report its viability, T/C value.

For COc1ccc([C@@H](O)c2cc(-c3ncnc4cc(N5CCOCC5)ccc34)c(F)cc2Cl)nn1 + CN(C)c1ccc(Nc2c3ccc(NC(=O)CCN4CCCC4)cc3nc3cc(NC(=O)CCN4CCCC4)ccc23)cc1 the molecule record lists viability, T/C as 36.3%

For COc1ccc([C@@H](O)c2cc(-c3ncnc4cc(N5CCOCC5)ccc34)c(F)cc2Cl)nn1 + Cc1[nH]c2ccc(F)cc2c1-c1nc2c3cccnc3c3ncccc3c2[nH]1 the molecule record lists viability, T/C as 36.2%

For C=CCn1c(=O)c2cnc(Nc3ccc(N4CCN(C)CC4)cc3)nc2n1-c1cccc(C(C)(C)O)n1 + Cc1[nH]c2ccc(F)cc2c1-c1nc2c3cccnc3c3ncccc3c2[nH]1 the molecule record lists viability, T/C as 67.1%

For CC(C)(O)C1CCC(Nc2ccc3ncc(-c4cccc(C(F)(F)F)c4)n3n2)CC1 (stereo not given) + CN(C)c1ccc(Nc2c3ccc(NC(=O)CCN4CCCC4)cc3nc3cc(NC(=O)CCN4CCCC4)ccc23)cc1 the molecule record lists viability, T/C as 35.7%

For CC(C)n1c(=O)n(C)c2cnc3cc(F)c(-c4ccc(OCCCN5CCCCC5)nc4)cc3c21 + Cc1cnc(CNC(=O)c2c(=O)c3ccc(N4CCCN(C)CC4)nc3n3c2sc2ccccc23)cn1 the molecule record lists viability, T/C as 64.2%

###

system: 885724-159-R-J1-PDC complex spheroid viability; test: Anticancer human tumor 885724-159-R-J1-PDC cell line growth inhibition [GQUAD]; details: second compound 0.1 µM; first compound 3.16 µM; hits give low values;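 also: spheroids exposed to agents for seven days before readout; percent of vehicle control viability where 100% = DMSO wells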
For each entry below, report its viability, T/C value.
Quick note: give the figure in %, leave out the unit.

For CC(C)(O)C1CCC(Nc2ccc3ncc(-c4cccc(C(F)(F)F)c4)n3n2)CC1 (stereo not drawn) + Cc1cnc(CNC(=O)c2c(=O)c3ccc(N4CCCN(C)CC4)nc3n3c2sc2ccccc23)cn1 the compound record lists viability, T/C as 45.5

For CC(C)n1c(=O)n(C)c2cnc3cc(F)c(-c4ccc(OCCCN5CCCCC5)nc4)cc3c21 + Cc1[nH]c2ccc(F)cc2c1-c1nc2c3cccnc3c3ncccc3c2[nH]1 the compound record lists viability, T/C as 94.5

For CC1COCCN1c1cc(C2(O)CC3CCC(C2)O3)c2cnn(-c3ccn[nH]3)c2n1 (stereo not drawn) + Cc1cnc(CNC(=O)c2c(=O)c3ccc(N4CCCN(C)CC4)nc3n3c2sc2ccccc23)cn1 the compound record lists viability, T/C as 37.8

###

system: 885724-159-R-J1-PDC complex spheroid viability; assay: Anticancer human tumor 885724-159-R-J1-PDC cell line growth inhibition [GQUAD]; details: second compound 0.0316 µM; first compound 1 µM; hits give low values;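 also: spheroids exposed to agents for seven days before readout; percent of vehicle control viability where 100% = DMSO wells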
endpoint label: viability, T/C (%)
Quick note: give the figure in %, leave out the unit.

For C#Cc1c(F)ccc2cc(O)cc(-c3ncc4c(N5CC6CCC(C5)N6)nc(OCC56CCCN5CC(F)C6)nc4c3F)c12 (stereo not given) + Cc1[nH]c2ccc(F)cc2c1-c1nc2c3cccnc3c3ncccc3c2[nH]1 the compound record lists viability, T/C as 76.1

For O=C(NO)c1cnc(N2CCN(S(=O)(=O)c3ccc4ccccc4c3)CC2)nc1 + Cc1[nH]c2ccc(F)cc2c1-c1nc2c3cccnc3c3ncccc3c2[nH]1 the compound record lists viability, T/C as 42.3

For CC1COCCN1c1cc(C2(S(C)(=N)=O)CC2)nc(-c2ccnc3[nH]ccc23)n1 (stereo not given) + Cc1cnc(CNC(=O)c2c(=O)c3ccc(N4CCCN(C)CC4)nc3n3c2sc2ccccc23)cn1 the compound record lists viability, T/C as 106

For O=c1[nH]cc(F)c(=O)[nH]1 + CN(C)c1ccc(Nc2c3ccc(NC(=O)CCN4CCCC4)cc3nc3cc(NC(=O)CCN4CCCC4)ccc23)cc1 the compound record lists viability, T/C as 100

For CC1COCCN1c1cc(C2(O)CC3CCC(C2)O3)c2cnn(-c3ccn[nH]3)c2n1 (stereo not given) + Cc1cnc(CNC(=O)c2c(=O)c3ccc(N4CCCN(C)CC4)nc3n3c2sc2ccccc23)cn1 the compound record lists viability, T/C as 52.9

For CCCS(=O)(=O)Nc1ccc(F)c(C(=O)c2c[nH]c3ncc(-c4ccc(Cl)cc4)cc23)c1F + CN(C)c1ccc(Nc2c3ccc(NC(=O)CCN4CCCC4)cc3nc3cc(NC(=O)CCN4CCCC4)ccc23)cc1 the compound record lists viability, T/C as 130

For COc1ccc([C@@H](O)c2cc(-c3ncnc4cc(N5CCOCC5)ccc34)c(F)cc2Cl)nn1 + Cc1[nH]c2ccc(F)cc2c1-c1nc2c3cccnc3c3ncccc3c2[nH]1 the compound record lists viability, T/C as 94

For O=C(NO)c1cnc(N2CCN(S(=O)(=O)c3ccc4ccccc4c3)CC2)nc1 + Cc1cnc(CNC(=O)c2c(=O)c3ccc(N4CCCN(C)CC4)nc3n3c2sc2ccccc23)cn1 the compound record lists viability, T/C as 31.2

For CC(=O)O[C@H]1C(=O)[C@@]2(C)[C@H]([C@H](OC(=O)c3ccccc3)[C@]3(O)C[C@H](OC(=O)[C@H](O)[C@@H](NC(=O)c4ccccc4)c4ccccc4)C(C)=C1C3(C)C)[C@]1(OC(C)=O)CO[C@@H]1C[C@@H]2O + Cc1cnc(CNC(=O)c2c(=O)c3ccc(N4CCCN(C)CC4)nc3n3c2sc2ccccc23)cn1 the compound record lists viability, T/C as 108

For CC1COCCN1c1cc(C2(S(C)(=N)=O)CC2)nc(-c2ccnc3[nH]ccc23)n1 (stereo not given) + CN(C)c1ccc(Nc2c3ccc(NC(=O)CCN4CCCC4)cc3nc3cc(NC(=O)CCN4CCCC4)ccc23)cc1 the compound record lists viability, T/C as 98.6
